The sequences listed here are annotated with their PBM binding z-score.
- System: PPARg:RXRa (NR concentration 180 nM, RXRa partner concentration 90 nM)
- measurement protocol: PBM binding z-score (relative to random genomic background probes); higher = stronger binding; sequences stand for … in GC…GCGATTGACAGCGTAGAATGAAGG
When you answer, write just the number.

>  <macromolecule sequence>
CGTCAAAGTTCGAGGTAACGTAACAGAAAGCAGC

>  <target desc>
PPARg:RXRa (NR concentration 180 nM, RXRa partner concentration 90 nM)

>  <measurement>
1.36

$$$$
>  <macromolecule sequence>
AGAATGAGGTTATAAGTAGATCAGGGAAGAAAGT

>  <target desc>
PPARg:RXRa (NR concentration 180 nM, RXRa partner concentration 90 nM)

>  <measurement>
2.67

$$$$
>  <macromolecule sequence>
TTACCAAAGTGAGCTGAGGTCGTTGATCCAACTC

>  <target desc>
PPARg:RXRa (NR concentration 180 nM, RXRa partner concentration 90 nM)

>  <measurement>
-0.509

$$$$

Shift focus to the following entry.
[in] Name the recorded PBM binding z-score for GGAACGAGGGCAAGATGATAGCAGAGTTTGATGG .
[out] 1.39
